Source listed as patent US4927835A.

Procedure Text: Stomach disorder (ulcer generation)
Design: species or system male rats (SD strain)
Setup Conditions: rat, in vivo, po; ratio UD50/ED50; read-out: Safety Region (UD50 /ED50)
Endpoint Label: selectivity ratio
# respond with the number and nothing more

Compound: O=C(Cn1c(=O)sc2ccc(Cl)cc21)N1CCN(CCO)CC1 [Thiaramide]
selectivity ratio: 2.5
--
Compound: CC(C)(C)c1cc(C(=O)c2cccs2)cc(C(C)(C)C)c1O
selectivity ratio: 2.1
--
Compound: COc1ccc2c(c1)c(CC(=O)O)c(C)n2C(=O)c1ccc(Cl)cc1
selectivity ratio: 3

Please report the recorded selectivity ratio for CN(CCO)Cc1cc(C(=O)c2cccs2)cc(C(C)(C)C)c1O .
14.9

###

Procedure Text: Stomach disorder (ulcer generation)
Design: species or system male rats (SD strain)
Setup Conditions: in vivo, po; rat, per os; fasted 17 hours; provit method; read-out: (4) UD50, stomach ulcer generation
Endpoint Label: TD50 (mg/kg)
Give just the number in mg/kg; leave the unit off.

Please report the recorded TD50 for COc1ccc2c(c1)c(CC(=O)O)c(C)n2C(=O)c1ccc(Cl)cc1 .
2.4
